Molecular target: BCL-XL (Homo sapiens)
Construct: endogenous in cells; host or cells: MOLT-4
Sequence (Q07817 whole entry): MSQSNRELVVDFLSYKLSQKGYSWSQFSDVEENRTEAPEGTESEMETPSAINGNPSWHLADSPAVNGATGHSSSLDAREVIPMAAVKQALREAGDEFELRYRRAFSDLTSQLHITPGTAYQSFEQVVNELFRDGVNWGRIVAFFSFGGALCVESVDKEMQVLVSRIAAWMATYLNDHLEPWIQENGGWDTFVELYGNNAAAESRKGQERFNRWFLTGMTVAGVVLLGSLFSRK
Test: Bcl-xL ELISA degradation in MOLT-4 cells, 6 h
Format: cell-based
Procedure: The letter codes for BCL-XL DC50 include: A (<0.01 μM); B (0.01-0.1 μM); C (>[…]); D (>0.5-1.0 μM); and E (>1.0 μM). The letter codes for Dmax % include A (>75%); B (50 to 75%); C (<50%).
MEASURED_QUANTITY: Dmax

The cases that follow already have their Dmax on record.
COMPOUND | MEASURED_TARGET | Dmax
C#Cc1ccc(CNC(=O)[C@@H]2C[C@@H](O)CN2C(=O)[C@@H](NC(=O)CCCS(=O)(=O)NC(=O)c2nc(N(C)c3cc(C)c(Nc4nc5ccccc5s4)nn3)ccc2-c2cnn(CC3CCCCC3)c2C)C(C)(C)C)cc1 | BCL-XL (Homo sapiens) | 50 to 75%
Cc1ncsc1-c1ccc(CNC(=O)[C@@H]2C[C@@H](O)CN2C(=O)[C@@H](NC(=O)C2(F)CC2)C(C)(C)C)c(OCC(=O)N2CCN(CC#Cc3ccc(OCCCc4sc(N5CCc6cccc(C(=O)Nc7nc8ccccc8s7)c6C5)nc4C(=O)O)c(F)c3)CC2)c1 | BCL-XL (Homo sapiens) | 50 to 75%
Cc1ncsc1-c1ccc([C@H](C)NC(=O)[C@@H]2C[C@@H](O)CN2C(=O)[C@@H](NC(=O)c2ccc(NC3CCCN(S(=O)(=O)NC(=O)c4nc(N5CCc6cccc(C(=O)Nc7nc8ccccc8s7)c6C5)ccc4-c4cnn(CC5CCCCC5)c4C)C3)cc2)C(C)(C)C)cc1 (some centres unmarked) | BCL-XL (Homo sapiens) | 50 to 75%

Next:
Value of Dmax reported for the compound Cc1ncsc1-c1ccc([C@H](C)NC(=O)[C@@H]2C[C@@H](O)CN2C(=O)[C@@H](NC(=O)CN(C)CCCS(=O)(=O)NC(=O)c2nc(N3CCc4cccc(C(=O)Nc5nc6ccccc6s5)c4C3)ccc2-c2cnn(CC3CCCCC3)c2C)C(C)(C)C)cc1 is > 75%

====

Target: BCL-XL (Homo sapiens)
Construct: endogenous in cells; host or cells: MOLT-4
Assay: BCL-XL degradation assay, western blot in MOLT-4 cells, 16 h
Assay type: cell-based
Settings: western blot, MOLT-4 cells, 16 h; read-out: Bcl-xL WB in MOLT-4 degradation 16 h: Average Dmax %
Parameter Dmax: see the listing below.

ENTRY_SMILES | MEASURED_TARGET | Dmax
Cc1ncsc1-c1ccc([C@H](C)NC(=O)[C@@H]2C[C@@H](O)CN2C(=O)[C@@H](NC(=O)CCCCCCCS(=O)(=O)NC(=O)c2ccc(N3CCN(CC4=C(c5ccc(Cl)cc5)CCC(C)(C)C4)CC3)cc2)C(C)(C)C)cc1 | BCL-XL (Homo sapiens) | 50 to 75%

Value of Dmax reported for the molecule Cc1ncsc1-c1ccc(CNC(=O)[C@@H]2C[C@@H](O)CN2C(=O)[C@@H](NC(=O)C2(F)CC2)C(C)(C)C)c(OCCCC(=O)N(C)CCCc2cccc(F)c2OCCCc2sc(N3CCc4cccc(C(=O)Nc5nc6ccccc6s5)c4C3)nc2C(=O)O)c1 is 50 to 75%

Value of Dmax reported for the molecule Cc1cc(N(CCN(C)C(=O)CCCCCOc2cc(-c3scnc3C)ccc2CNC(=O)[C@@H]2C[C@@H](O)CN2C(=O)[C@@H](NC(=O)C2(F)CC2)C(C)(C)C)c2ccc(-c3cnn(CC4CCCCC4)c3C)c(C(=O)O)n2)nnc1Nc1nc2ccccc2s1 is < 50%

Value of Dmax reported for the molecule Cc1ncsc1-c1ccc([C@H](C)NC(=O)[C@@H]2C[C@@H](O)CN2C(=O)[C@@H](NC(=O)CCCCCC(=O)NCCOc2ccc(C(=O)Nc3nc4ccccc4s3)c3c2CCN(c2ccc(-c4cnn(CC5CCCCC5)c4C)c(C(=O)O)n2)C3)C(C)(C)C)cc1 is > 75%
